test.summary: Elimination half-life
condition.notes: human, in vivo
endpoint: half-life

q: What value of measured half-life is listed for [2H][C@@](C)(NC(=O)COC(F)F)c1cc(F)cc(Cl)c1COc1cccc2c(-c3ncnn3C)cc(C)nc12 ?
a: ~4 h

Origin of values: patent US20250268887A1
